The reported measurements were obtained from the supplement of paper PMC10567573.

Experiment: protein stability index of a GFP-peptide fusion (GPS, HEK-293T) (PSI 1-6); higher = more stable;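 note: 24-mer peptide tiles fused after GFP, lentivirally expressed, FACS-sorted into six equal bins by GFP/DsRed ratio, decoded by Illumina sequencing, PSI is the read-weighted mean bin number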
Conditions: treatment: DMSO; c terminus: a fixed tail appended
# binarize protein stability index: threshold 3 inclusive, high side T, low side F

Look over these answered cases.
construct-sequence	class-label
CLDPIIYFFLCQPFREILCKKLHI [P2RY14]	F
WELREKQQLAAEPVPTGFFNMWGF [WDR41]	F
NKIKVMHKQLLLFHNAVSAYFAGN [ARFIP2]	F
ETIPLTAEKLCIYTDNSIRPEELL [CCND1]	T
LGNREALIQFLEQVHQGIKGMVLD [CPN1]	F

hey, is protein stability index for this one >= 3? SGAFQWEELEEDIRKKLKDSGDVS [RHOBTB3]
T

Also DNILSLINVNDLSFVTGSHVGELI [WDR41] , if possible.
F

Also PCGKYNAMVLELLGPSLEDLFDLC [CSNK1G1] , if possible.
F

Also KRWQKNNWPKNSNGVTQKASAPTY [NANOGP8] , if possible.
T

Also DPALRRRRRGPRNKKRGWRRLAQE [NOP53] , if possible.
T

Also MEEVLLLGLKDKEGYTSFWNDCIS [GOLPH3L] , if possible.
F

Also FQCNQCGASFTQKGNLLRHIKLHS [IKZF1] , if possible.
T

Also QTQVKIWFQNKRSKFKKLMKQGGA [DLX1] , if possible.
F

Also GVCIRRCTVLRDARIRSHSWLESC [GMPPB] , if possible.
F

* * *

Assay: protein stability index of a GFP-peptide fusion (GPS, HEK-293T) (PSI 1-6); higher = more stable
Settings: treatment: MLN4924 1 uM, 8 h; c terminus: a fixed tail appended
# binarize protein stability index: threshold 4 inclusive, high side label 1, low side label 0

construct-sequence	class-label
KRSSLPRPSSILPPRRGVSGDRDE [MAP2]	label 1
PSRVHGSLEPFRPQQAPQDDGSQD [PWWP2B]	label 1
LEGQSPPQSLPSTPKAAWIREEGR [PBXIP1]	label 1
WVKGSVPPPLDQYVKFDAVSGDYY [CLPTM1]	label 0

Pending sequence:
hey, is protein stability index for this one >= 4? ATAFSKLKPESSQQPGQDALAVKA [ZBED1]
label 1

* * *

Assay: protein stability index of a GFP-peptide fusion (GPS, HEK-293T) (PSI 1-6); higher = more stable
Settings: treatment: DMSO; c terminus: a fixed tail appended
# binarize protein stability index: threshold 4 inclusive, high side criterion met, low side criterion not met

construct-sequence	class-label
ADTEEPTKDPDVAFHGLSLGLSLT [PSD2]	criterion met
FMEMNQKLFDDCTQQFKAEKLKEK [PPP2R5C]	criterion met
PKETQPFPKSEQVYLHFLSVVTED [ZNF232]	criterion not met
RGYIKPHVDSIKFCGATIAGLSLL [ALKBH7]	criterion not met
DGAPALCPSPEALSPEPPVYSLQD [PRKX]	criterion met

Pending sequence:
hey, is protein stability index for this one >= 4? LQRPSYKFFFKSMDDDFGVVKEEI [DVL3]
criterion not met

* * *

Property: protein stability index; scope: individual sequences
Experiment: protein stability index of a GFP-peptide fusion (GPS, HEK-293T) (PSI 1-6); higher = more stable
Details: treatment: DMSO; c terminus: a fixed tail appended
The answer should be written as a number, with no unit following it.

Guide cases for protein stability index, answers given:
construct-sequence	endpoint-result
ENLKQQRSRREQFSRAPVSALPLA [STX5]	3.74
SSSRNSHLVQHQHPNSRKSSAGGA [ZNF8]	4.71
VHRRGEYNVYSTFQSHEPEFDYLK [PPP2R2B]	2.97
VGYQSQNISCFFRLVDRDSVWGYD [MYORG]	2.34
EYQLNDSAAYYLNDLDRIAQPNYI [GNAI1]	2.61

I have this sequence here, DCTETIEGLELTEQTFSPAKSLSF [ADD1] , and I need its recorded protein stability index.
4.16

Also CSVHYVSDSGDGVYAGRPLSVIQM [FBXO34] , if possible.
2.37

Also RMRLFGQRCQKCSWSQYEMPEFSS [RTP4] , if possible.
2.42

Also ECSYTSADGQRHHSKLLVSGFWGV [DHCR7] , if possible.
2.09

Also VESVFFGGGTPSLASPHTVAAVLE [RSAD1] , if possible.
2.97

Also QIFANTVDNARIVLQIDNARLAAD [KRT18] , if possible.
2.78

Also CCCCYQSKSLMTSVPMNGTSIQWK [EDNRA] , if possible.
2.2

Also LIDVCKYLGSLQYRVWKKMLASVE [TRIM35] , if possible.
2.75

Also QAFRAIDRGDYYLEGYRDNAYKDL [PCMTD1] , if possible.
2.85

Also AISDQLLGAGSDLKDFTLNETVNS [ADAMTSL2] , if possible.
4.32

Also KIDLENTLEQEQEALVNRLWKRMD [CCDC6] , if possible.
3.23

Also QRAKCKDPQLEIAYRGNCKDVSRC [SMOC2] , if possible.
3.85

* * *

Test: protein stability index of a GFP-peptide fusion (GPS, HEK-293T) (PSI 1-6); higher = more stable
Conditions: treatment: MLN4924 1 uM, 8 h; c terminus: native
# binarize protein stability index: threshold 3 inclusive, high side True, low side False

Look over these answered cases.
construct-sequence	class-label
FFIESCGAQVPVEGSRRETSITV	False
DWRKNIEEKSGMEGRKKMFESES [TNNI2]	True
WQPAVPLMHMLHLSGALDFPRQS [SPATS1]	False

hey, is protein stability index for this one >= 3? TQPGIRRARDKALSGGKRKETLV [NET1]
True

Also NWFMSFGPEIKLNTSQQGRNQAV [FAM104B] , if possible.
False

Also TMLSHYRPFYVNKGNGIGSNEAP [TRIM29] , if possible.
True

Also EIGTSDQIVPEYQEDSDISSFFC [TRIB1] , if possible.
True

Also RCLHASQWPVCAACPVRKFWSVG [BRF1] , if possible.
False

* * *

Assay: protein stability index of a GFP-peptide fusion (GPS, HEK-293T) (PSI 1-6); higher = more stable
Details: treatment: DMSO; c terminus: a fixed tail appended
# binarize protein stability index: threshold 3 inclusive, high side 1, low side -1

construct-sequence	class-label
FGGVDGLLAGGEKATMQNLNDRLA [KRT17]	1
VLKRQRKRRVALSPVTENSTSLSF [MYBL2]	1
CNPLRYSVLMGHGVCMGLVAAACA [OR10K2]	1
HICTNYNSVCSKFRKEIKSKSADN [RHOBTB1]	1
VMLGAGGVGKSAMTMQFISHRFPE [RIT1]	-1
LEQEQEFQVNKLMKKIKKLENDTI [CCDC6]	1
MEEEDPMPRQISRQSSVTESTLYP [TPRG1]	1
WTNQQKLYSRTGDIVEFVCKSGYH [CFHR2]	-1
ILEHAHRGEQTTSQVSWEQDLKLF [FCHSD1]	1
KKFELVPSPPTSPPWGLGPGAGDP [MYCL]	1

hey, is protein stability index for this one >= 3? LRYQETPGPREALSQLRVLCCEWL [ZNF232]
-1

Also GSTMLIEAAKGGHTSVVCYLLDYP [ANKRD17] , if possible.
-1

Also KPLYVAFSFMYILVGLTVIGAFLN [KCNK9] , if possible.
-1

* * *

Property: protein stability index; scope: individual sequences
Assay: protein stability index of a GFP-peptide fusion (GPS, HEK-293T) (PSI 1-6); higher = more stable
Settings: treatment: DMSO; c terminus: a fixed tail appended
The answer should be written as a number, with no unit following it.

I have this sequence here, KVEFPEARIYEETLNILLYEAQDG [KCTD10] , and I need its recorded protein stability index.
2.77

Also SRGSSVSMSGGRFRCPTCRHEVIM [TRIM63] , if possible.
2.43

Also IERLRSLSPKIMQEAFLVQEVVEL [TBC1D10A] , if possible.
2.08

Also KLLNITADPMDWSPSNVQKWLLWT [SPDEF] , if possible.
2.34

Also NEWRRPIIQFVESGDDKNSNYFSM [TRIM29] , if possible.
3

* * *

Experiment: protein stability index of a GFP-peptide fusion (GPS, HEK-293T) (PSI 1-6); higher = more stable
Settings: treatment: MLN4924 1 uM, 8 h; c terminus: a fixed tail appended
measure: protein stability index
The answer should be written as a number, with no unit following it.

Guide cases for protein stability index, answers given:
construct-sequence	measure	endpoint-result
KHAVVNLINYQDDAELATRAIPEL [CTNNB1]	protein stability index	3.64
SELTSLCQSVLEDFNLCLFYLPSS [SMG5]	protein stability index	2.42
KVTDHATTALLHYQLPQMPDVVVR [MED27]	protein stability index	3.28
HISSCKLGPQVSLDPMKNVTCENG [LOXL2]	protein stability index	4.14
EGQDLQHISNQKMPTGPPEDRLSL [DRICH1]	protein stability index	5.03

I have this sequence here, GVKRKADTTTPTTSAITASRSESP [BRD3] , and I need its recorded protein stability index.
5.19

Also KILPWSPEKIGTRFLLYTNENPNN [PNLIPRP1] , if possible.
2.89

Also IEKYLRRQLTKPRPVILDPADPTG [OAS1] , if possible.
3.25

Also RAASENSQDALRVVSTSGEQMKVY [IKZF1] , if possible.
4.78

Also NVGEISVSTRLTVLREDQIPRGFP [PTPRD] , if possible.
3.44

Also ARLTGVNDKMAEYTNSAGVPSLNA [GOSR1] , if possible.
4.01

Also PRAERKCPRIAPADSGRYRASPTR [ELOA2] , if possible.
4.47

Also QCQEAEQARAELTAQHQRRLAAIA [FBF1] , if possible.
4.28

Also VKEKGSTLDLSDLEAEKLVMFQRR [SCD] , if possible.
3.97

Also EIMLQYCFPRLDINVSKGINHLLK [PRIM1] , if possible.
2.5

Also TYLVSERLEREERNQTQVLRQQQD [FAF2] , if possible.
4.89

Also LRNFNSAKDMKKAVAHMKYMGKGS [MATN2] , if possible.
3.43

Also LEHRLNEMERTQAQLRDAVQSLQL [RASAL3] , if possible.
4.22

Also SLDWETFEQYCAWQLFLAHNIPLE [INTS3] , if possible.
2.16

Also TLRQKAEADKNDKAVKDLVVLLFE [HSP90AB1] , if possible.
3.12

Also KNWVKELRQHGPPNIVVAIAGNKC [RAB22A] , if possible.
2.47
